assay: Cytotoxicity against African green monkey Vero cells assessed as reduction in cell viability; type: cell-based; settings: chlorocebus sabaeus, Vero cells
quantity measured: CC50

**Query** Fill in reported CC50 for this entry: `Nc1ncc(Br)c2c1ncn2[C@H]1C=C[C@H](O)[C@@H]1O`
**Result** 27 to 32 µg/mL

* * *

test system: Venezuelan equine encephalitis virus; experiment: Antiviral activity against Venezuelan equine encephalitis virus; assay type: functional
Activity calls are given as the source filed them. The rule behind the calls is not given here.
quantity measured: Activity

Nc1ncc(Br)c2c1ncn2[C@@H]1[C@@H](O)[C@@H](O)[C@H]2C[C@H]21 = inactive
Nc1nccc2c1ncn2[C@H]1C=C[C@H](O)[C@@H]1O (relative stereo) = inactive
Nc1ncc(Br)c2c1ncn2[C@H]1C=C[C@H](O)[C@@H]1O = inactive
Nc1nccc2c1ncn2[C@@H]1[C@@H](O)[C@@H](O)[C@H]2C[C@H]21 = inactive
